# Test system: DMS-273
# Protocol Details: NCI tumour cell line growth inhibition, 48 h
Calls of active or inactive are those of the source. Rule as the data show it: active = GI50 up to about 1.1 µM and inactive = higher.
Attribute: GI50
Assay Metric: GI50

INSERT INTO results (compound, experimental_target, experimental_value) VALUES
  ('CCNC(=S)NNC(=O)c1nsc2ccccc12', 'DMS-273', '97.5 µM (inactive)'),
  ('CCOC(=O)NC(=O)c1cn(C2OC(CO)C(O)C2O)c(=O)[nH]c1=O (centres undefined)', 'DMS-273', '> 100 µM (inactive)'),
  ('O=C1/C(=C/c2ccccc2)CN(C(=O)OCC(Cl)(Cl)Cl)C/C1=C\c1ccccc1', 'DMS-273', '1.5 µM (inactive)'),
  ('COc1cc(/C=C2\[C@H]3c4c(c(OC)c(C)c(OC)c4OC)C[C@@H](C(=O)N2Cc2ccccc2)N3C(=O)OC(C)C)c(OC)c(C)c1OC', 'DMS-273', '25.9 µM (inactive)'),
  ('N#CCCN(c1ccc(/C=N/c2ccccc2Cl)cc1)S(=O)(=O)c1ccccc1', 'DMS-273', '> 100 µM (inactive)'),
  ('O=CC(NC(=O)N(CCCl)N=O)C(O)C(O)C(O)CO (centres undefined)', 'DMS-273', '1000 µM (inactive)'),
  ('O=C1CCCC/C1=C1\C(=O)Nc2cc(F)ccc21', 'DMS-273', '> 100 µM (inactive)'),
  ('Cc1cc(O)nc(NNC(C#N)c2ccc(N(C)C)cc2)n1 (centres undefined)', 'DMS-273', '> 100 µM (inactive)'),
  ('NC1C[C@H](n2cc(/C=C/Br)c(=O)[nH]c2=O)C[C@@H]1CO (some centres undefined)', 'DMS-273', '> 100 µM (inactive)');
